- EXPERIMENTAL_DETAILS: clinical
- COND: human, plasma, oral, 400 mg, Imatinib Cmax, mean ± SD, Cohort 3 (n=7), imatinib 400 mg bid alone, Day -1

MOLECULE_SMILES	Cmax [ng/mL]
Cc1ccc(NC(=O)c2ccc(CN3CCN(C)CC3)cc2)cc1Nc1nccc(-c2cccnc2)n1	4020

====

- EXPERIMENTAL_DETAILS: clinical
- COND: human, plasma, oral, 400 mg, Imatinib tmax, median (range), Cohort 3 (n=7), imatinib 400 mg bid with nilotinib 400 mg qd, Day 8

MOLECULE_SMILES	Tmax (h)
Cc1ccc(NC(=O)c2ccc(CN3CCN(C)CC3)cc2)cc1Nc1nccc(-c2cccnc2)n1	2.4

====

- EXPERIMENTAL_DETAILS: clinical
- COND: human, serum, oral, 400 mg bid
PROPERTY_MEASURED: Cmax (ng/mL)

MOLECULE	ASSAY_VALUE
Cc1cn(-c2cc(NC(=O)c3ccc(C)c(Nc4nccc(-c5cccnc5)n4)c3)cc(C(F)(F)F)c2)cn1 [Nilotinib]	1640

====

- EXPERIMENTAL_DETAILS: clinical
- COND: human, serum, oral, 400 mg bid
PROPERTY_MEASURED: Tmax (h)

COMPOUND	PROPERTY_MEASURED	ASSAY_VALUE
Cc1cn(-c2cc(NC(=O)c3ccc(C)c(Nc4nccc(-c5cccnc5)n4)c3)cc(C(F)(F)F)c2)cn1 [Nilotinib]	Tmax	2.8

====

- EXPERIMENTAL_DETAILS: clinical
- COND: human, plasma, oral, 400 mg, Imatinib Cmax, mean ± SD, Cohort 4 (n=5), imatinib 400 mg bid with nilotinib 400 mg bid, Day 8

MOLECULE	Cmax
Cc1ccc(NC(=O)c2ccc(CN3CCN(C)CC3)cc2)cc1Nc1nccc(-c2cccnc2)n1 [Imatinib]	5070 ng/mL

====

- EXPERIMENTAL_DETAILS: clinical
- COND: human, serum, oral
PROPERTY_MEASURED: AUC(0-t) (ng·h/mL)

MOLECULE_SMILES	ASSAY_VALUE
Cc1cn(-c2cc(NC(=O)c3ccc(C)c(Nc4nccc(-c5cccnc5)n4)c3)cc(C(F)(F)F)c2)cn1	13600

====

- EXPERIMENTAL_DETAILS: clinical
- COND: human, plasma, oral, 400 mg, Imatinib Cmax, mean ± SD, Cohort 3 (n=7), imatinib 400 mg bid with nilotinib 400 mg qd, Day 8

MOLECULE_SMILES	Cmax [ng/mL]
Cc1ccc(NC(=O)c2ccc(CN3CCN(C)CC3)cc2)cc1Nc1nccc(-c2cccnc2)n1	4200

====

- EXPERIMENTAL_DETAILS: clinical
- COND: human, plasma, oral, 400 mg, Imatinib tmax, median (range), Cohort 3 (n=7), imatinib 400 mg bid alone, Day -1
PROPERTY_MEASURED: Tmax

MOLECULE	ASSAY_VALUE
Cc1ccc(NC(=O)c2ccc(CN3CCN(C)CC3)cc2)cc1Nc1nccc(-c2cccnc2)n1 [Imatinib]	4.8 h

====

- EXPERIMENTAL_DETAILS: clinical
- COND: human, plasma, oral, 400 mg, Imatinib Cmax, mean ± SD, Cohort 4 (n=5), imatinib 400 mg bid alone, Day -1

MOLECULE_SMILES	Cmax
Cc1ccc(NC(=O)c2ccc(CN3CCN(C)CC3)cc2)cc1Nc1nccc(-c2cccnc2)n1	4170 ng/mL
